- testedTarget: PSG G322A G335A (PSD-95)
- assayExplanation: FP displacement (competition) of FITC-15 AA CRIPT by library peptide, IC50 and Ki
- testContext: read-out: Ki (µM), PSG G322A G335A; FP displacement of FITC-15 AA CRIPT probe by acetylated PSD library peptide
endpoint: Ki (µM)
Just the number please, in µM, no unit attached.

Ask: What does the data say about its Ki? Entry: CC(=O)N[C@@H](Cc1ccc(O)cc1)C(=O)N[C@H](C(=O)N[C@@H](CCC(=O)O)C(=O)N[C@@H](CO)C(=O)N[C@@H](CCCCN)C(=O)N[C@@H](CCCCN)C(=O)N[C@@H](Cc1c[nH]cn1)C(=O)NCC(=O)N[C@@H](CCCNC(=N)N)C(=O)N[C@@H](Cc1c[nH]c2ccccc12)C(=O)N[C@@H](CCCCN)C(=O)N[C@@H](CC(C)C)C(=O)N[C@@H](Cc1c[nH]c2ccccc12)C(=O)N[C@@H](Cc1ccccc1)C(=O)N[C@@H](CC(C)C)C(=O)O)[C@@H](C)O [INSY2]
Result: 339

Ask: What does the data say about its Ki? Entry: CC(=O)N[C@@H](Cc1ccc(O)cc1)C(=O)N[C@@H](CC(C)C)C(=O)N1CCC[C@H]1C(=O)N[C@@H](CC(C)C)C(=O)N[C@@H](CC(=O)O)C(=O)N[C@H](C(=O)N[C@@H](CCC(N)=O)C(=O)N[C@@H](CCC(=O)O)C(=O)NCC(=O)N[C@@H](CC(=O)O)C(=O)N[C@@H](Cc1ccccc1)C(=O)N[C@@H](CCC(N)=O)C(=O)N[C@H](C(=O)N[C@@H](CCC(=O)O)C(=O)N[C@H](C(=O)O)C(C)C)[C@@H](C)O)C(C)C [AGRB3]
Result: 185

Ask: What does the data say about its Ki? Entry: CC[C@H](C)[C@H](NC(=O)[C@H](CO)NC(=O)[C@@H](NC(=O)[C@@H](NC(=O)[C@@H]1CCCN1C(=O)[C@H](CC(C)C)NC(=O)[C@H](C)NC(=O)[C@@H]1CCCN1C(=O)[C@H](Cc1ccc(O)cc1)NC(C)=O)[C@@H](C)O)C(C)C)C(=O)N[C@@H](CO)C(=O)N[C@@H](CO)C(=O)N[C@@H](CO)C(=O)N[C@@H](C)C(=O)N[C@@H](CCC(=O)O)C(=O)N[C@H](C(=O)O)C(C)C [DOC10]
Result: 698

Ask: What does the data say about its Ki? Entry: CC[C@H](C)[C@H](NC(=O)[C@@H](NC(=O)[C@H](CCCCN)NC(=O)[C@H](CCCCN)NC(=O)CNC(=O)[C@H](CC(C)C)NC(=O)[C@H](CCCCN)NC(=O)[C@H](C)NC(=O)[C@H](CCSC)NC(=O)[C@H](CCCNC(=N)N)NC(=O)[C@H](CCSC)NC(=O)[C@H](CCCNC(=N)N)NC(=O)[C@H](CC(C)C)NC(=O)[C@H](C)NC(=O)[C@H](Cc1ccc(O)cc1)NC(C)=O)C(C)C)C(=O)O [PALMD]
Result: 564

Provenance of the data: paper PMC9490041
